Numbers sourced from a melting point compilation (Tetko et al.; mined from patent text by program, amines drawn as free bases though some values may be those of a salt).

Can you tell me melting point for the items I'm about to list?

Solved cases below.
In: What measured melting point goes with `CC=Cn1c(C)c(C)c2cnnc(NCc3ccccc3)c21` ?
Out: 130 to 131 °C

In: Which measured melting point value corresponds to `Cn1c(=O)c(C(=O)O)c(-c2ccccc2Cl)c2cccnc21` ?
Out: 178 to 180 °C

In: Look up melting point for this compound: `COC(Cc1nsc(N)n1)OC`
Out: 62 to 66.5 °C

In: I have this compound here, `S=C(NCc1cccnc1)c1[nH]c2ccc(Cl)cc2c1-c1ccccc1` , and I need its recorded melting point.
Out: 240 to 241 °C

In: // returns reported melting point for input `c1cncc(-c2noc(-c3ccco3)n2)c1`
Out: 110 to 114 °C

Count: 8. Required value per item: melting point.
1. O=c1[nH]ncc2cc(CCc3ccccc3)ccc12
2. O=C1CC(c2ccccc2)CC(=O)N1c1ccncc1
3. Cc1oc(C(=O)NCc2ccc3c(c2)OCO3)c(C)c1-c1nc2ccc(C(=O)c3ccccc3)cc2[nH]1
4. CCCCCS(=O)(=O)NC(=O)/C=C/c1cc(OC(C)C)nn1Cc1ccc(C(F)(F)F)cc1Cl
5. O=Cc1cn(-c2cccnc2)c2ccccc12
6. C(=Cc1cc(OCc2ccccc2)cc(OCc2ccccc2)c1)c1ccc(OCc2ccccc2)cc1
7. O=C(NC=CC1OC1CCCNC(=O)c1ccc(OC(F)(F)F)cc1)c1ccc(OC(F)(F)F)cc1 (stereo unspecified)
8. CCn1cc(-c2cccc(Cl)c2)c(=O)n1-c1cccc(C(F)(F)F)c1

Out:
1. 190 to 193 °C
2. 229 to 230 °C
3. 122 to 125 °C
4. 139 to 140 °C
5. 148 to 150 °C
6. 156 to 158 °C
7. 121 to 123 °C
8. 113 to 114 °C

Fill in melting point for each of the 8 compounds listed.
1. CC(=O)C(=NNc1ccccc1)Sc1ccc(Cl)cc1
2. Cc1nnc(-c2ccc3occ(-c4ccc(SC(C)C)cc4)c3c2)o1
3. C1=C(c2ccccc2)CCN(Cc2cc3ccccc3[nH]2)C1
4. CCOC(=O)CCCCCCC(=O)Nc1ccc2c(c1)C(c1ccccc1)=N[C@@H](C)C(=O)N2C
5. COC(=O)c1ccc2c(c1)CN(c1c(F)cc3c(=O)c(C(=O)O)cn(-c4ccc(F)cc4F)c3c1F)C2
6. O=C(O)C1CCNC2CCCCC21 (stereo unspecified)
7. Cc1cc2nc(S(=O)(=O)CC(F)(F)F)[nH]c2cc1F
8. CNS(=O)(=O)c1cc2c(c(C(=O)O)c1)OCCO2

Out:
["111 to 113 °C", "96 to 97 °C", "128 to 130 °C", "55 to 56 °C", "248 to 251 °C", "> 300 °C", "164 to 166 °C", "208 to 209 °C"]

# return melting point for each item in the list
1. Cc1cccc(-c2ncc(N)c(=O)n2CC(=O)NC(Cc2ccccc2)C(=O)C(F)(F)C(=O)NCC(=O)O)c1 (stereo unspecified)
2. CC[C@]12CC[C@H]3[C@@H](CC(Cl)C4=CC(=O)CC[C@@H]43)[C@@H]1C=CC2=O (stereo partly specified)

Out:
1. 128 to 132 °C
2. 136 °C

Hi! Can you tell me melting point for each of these compounds?
1. CC(=O)c1c(-c2ccncc2)[nH]c(-c2ccncc2)c1C(F)(F)F
2. CCOC(=O)C1=C(C)N=C(N)N(C(=O)OCC)C1c1cccc([N+](=O)[O-])c1 (stereo unspecified)
3. N#CCc1ccc(C2=CCCCC2)cc1
4. CN1CCc2c(-c3ccc(S(=O)(=O)N(C)C)cc3)cc3c(c2C1)N(C)C(=O)C3=O
5. O=Cc1coc2cc3c(cc2c1=O)OCO3

Out:
250 to 255 °C
166 to 168 °C
71 to 73 °C
232 to 240 °C
232 to 233 °C

Please give melting point for each item listed below.
1. CCCS(=O)c1ccc2[nH]c(NC(=O)OC)nc2c1 (stereo unspecified)
2. CCCn1c(=O)c2c(nc(C=Cc3ccc(S(=O)(=O)O)cc3)n2C)n(CCC)c1=O
3. CC(=N)Nc1ccccc1N1CCOCC1

Out:
215 to 216 °C
> 270 °C
140 to 141 °C
